// compounds with pIC50 on Apoptosis regulator Bcl-2 (Homo sapiens), multi-source literature
pIC50: −log10 of the molar value.
Measured metric: pIC50

{"columns": ["Compound", "Observed result"],
 "data": [
  ["CCCCN(CCCC)C(=O)c1cc(C)n(-c2ccc(NC(=O)CCC3COc4ccccc43)cc2C(=O)N2Cc3ccccc3C[C@H]2CO)n1 (stereo partly drawn)", "7.21 to 7.22"],
  ["CC(C)(C)c1ccc(CCc2cc(O)c(O)c(C(=O)Nc3ccc(S(=O)(=O)N4CCN(c5ccccc5)CC4)cc3)c2)cc1", "< 6.00"],
  ["CCCCN(CCCC)C(=O)c1cc(C)n(-c2ccc(NC(=O)CCCc3ccc([N+](=O)[O-])cc3)cc2C(=O)N2Cc3ccccc3C[C@H]2CO)n1", "6.57 to 6.64"],
  ["CCCCc1c(-c2ccc(C(=O)NS(=O)(=O)c3ccc4ccccc4c3)cc2C(=O)N2Cc3ccccc3C[C@H]2CO)c(CO)nn1-c1ccccc1", 8.00],
  ["CCCCCCCCCCCc1ccc(-c2cc(CCc3ccc(C(C)(C)C)cc3)c(O)c(O)c2O)cc1", "< 6.00"],
  ["C[C@H](CSc1ccccc1)Nc1ccc(S(=O)(=O)Nc2ncnc3c2CCN(C2CCN(Cc4ccccc4-c4ccc(Cl)cc4)CC2)C3)cc1S(=O)(=O)C(F)(F)F", 6.63],
  ["CCCCN(CCCC)C(=O)c1cc(C)n(-c2ccc(NC(=O)COc3cccnc3)cc2C(=O)N2Cc3ccccc3C[C@H]2CO)n1", 6.69],
  ["CCCCN(CCCC)C(=O)c1cc(C)n(-c2ccc(NC(=O)c3cc(-c4cccc(O)c4)[nH]n3)cc2C(=O)N2Cc3ccccc3C[C@H]2CO)n1", "6.02 to 6.04"],
  ["Cc1c(CN(C(=O)c2cc(-c3cc4c(cc3C(=O)N3Cc5ccccc5C[C@H]3CN3CCOCC3)OCO4)n3c2CCCC3)c2ccc(O)cc2)cccc1[N+](=O)[O-]", "< 7.30"],
  ["CCCCN(Cc1ccc(Cl)c(Cl)c1)C(=O)c1nn(-c2ccc(C(=O)NS(=O)(=O)c3ccc4ccc(I)cc4c3)cc2C(=O)N2CCc3ccccc3C2)c(C)c1Cl", 7.70],
  ["Oc1c(Cc2ccccc2)cc(-c2ccc(Cc3ccccc3)cc2)c(O)c1O", "< 6.00"],
  ["CCCCN(CCCC)C(=O)c1cc(C)n(-c2ccc(NC(=O)c3ccccc3Nc3ccccc3[N+](=O)[O-])cc2C(=O)N2Cc3ccccc3C[C@H]2CO)n1", "6.33 to 6.40"]
]}
